IC50 for assorted molecules
# TARGET SYSTEM: UniProtKB P19793
# Sequence (P19793 whole entry): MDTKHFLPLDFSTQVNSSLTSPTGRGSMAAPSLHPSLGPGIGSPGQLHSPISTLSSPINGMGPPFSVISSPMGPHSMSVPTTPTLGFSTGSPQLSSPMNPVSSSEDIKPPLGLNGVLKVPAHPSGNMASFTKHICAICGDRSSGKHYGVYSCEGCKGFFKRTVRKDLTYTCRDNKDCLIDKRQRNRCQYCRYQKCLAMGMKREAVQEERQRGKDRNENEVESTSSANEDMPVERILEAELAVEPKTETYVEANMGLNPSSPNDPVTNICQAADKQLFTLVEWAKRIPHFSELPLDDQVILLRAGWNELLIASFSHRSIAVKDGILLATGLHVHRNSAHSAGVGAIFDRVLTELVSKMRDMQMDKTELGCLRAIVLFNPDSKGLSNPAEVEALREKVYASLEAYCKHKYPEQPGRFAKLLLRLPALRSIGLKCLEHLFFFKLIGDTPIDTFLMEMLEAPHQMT
# PROTOCOL NOTES: Inhibition of 9-cis-retinoic acid-induced RXRalpha transactivation
ATTRIBUTE MEASURED: IC50 (nM)

- SMILES: "CCCN1c2ccc(C#N)cc2N=C(c2ccc(C(=O)O)cc2)c2cc3c(cc21)C(C)(C)CCC3(C)C"
  NUMERIC VALUE: 2100
- SMILES: "COc1ccc(Sc2ccc3c(c2)N=C(c2ccc(C(=O)O)cc2)c2cc4c(cc2N3C)C(C)(C)CCC4(C)C)cc1"
  NUMERIC VALUE: 720
- SMILES: "CN1c2ccc(S(=O)(=O)Nc3ccc(OC(F)(F)F)cc3)cc2N=C(c2ccc(C(=O)O)cc2)c2cc3c(cc21)C(C)(C)CCC3(C)C"
  NUMERIC VALUE: 460
- SMILES: "COc1ccc(CSc2ccc3c(c2)N=C(c2ccc(C(=O)O)cc2)c2cc4c(cc2N3C)C(C)(C)CCC4(C)C)cc1"
  NUMERIC VALUE: 5500
- SMILES: "CN1c2ccc(S(=O)(=O)N3CCCC3)cc2N=C(c2ccc(C(=O)O)cc2)c2cc3c(cc21)C(C)(C)CCC3(C)C"
  NUMERIC VALUE: 450
- SMILES: "CN1c2ccc(C#N)cc2N=C(c2ccc(C(=O)O)cc2)c2cc3c(cc21)C(C)(C)CCC3(C)C"
  NUMERIC VALUE: 430
- SMILES: "COc1ccc(S(=O)(=O)c2ccc3c(c2)N=C(c2ccc(C(=O)O)cc2)c2cc4c(cc2N3C)C(C)(C)CCC4(C)C)cc1"
  NUMERIC VALUE: 170
- SMILES: "CCCS(=O)(=O)c1ccc2c(c1)N=C(c1ccc(C(=O)O)cc1)c1cc3c(cc1N2C)C(C)(C)CCC3(C)C"
  NUMERIC VALUE: 450
